// GI50 collected for NCI-H460
Counter-ions that a name gives are not always drawn.
The reply must contain the numeric value and, after it, the unit.

Example entries and their recorded answers appear below.
> print(dat)
                                   compound  measurement.kind       result
1  COc1cc2c(cc1OC)OCC(C(=O)c1cc(OC)c(OC)c(OC)c1)=C2              GI50    0.4 µg/mL
2  COc1cc(C(=O)C2=Cc3cccc(O)c3OC2)cc(OC)c1OC              GI50  0.044 µg/mL
3  COc1cc(C(=O)C2=Cc3ccc(O)c(O)c3OC2)cc(OC)c1OC              GI50   0.34 µg/mL
4  COc1cc2c(cc1O)C=C(C(=O)c1cc(OC)c(OC)c(OC)c1)CO2              GI50    5.5 µg/mL
5  COc1cc(C(=O)C2=Cc3ccc(OC)c(OC)c3OC2)cc(OC)c1OC              GI50   0.37 µg/mL
6  COc1cc(C(=O)C2=Cc3cccc(OP(=O)(O)O)c3OC2)cc(OC)c1OC [Compound 16, disodium salt]              GI50   0.12 µg/mL
7  COc1cc(C(=O)C2=Cc3ccc(OP(=O)(O)O)c(OP(=O)(O)O)c3OC2)cc(OC)c1OC              GI50    3.5 µg/mL

// compound `COc1cc(OC)c2c(c1)OCC(C(=O)c1cc(OC)c(OC)c(OC)c1)=C2` , assay NCI-H460, GI50 value: 0.4 µg/mL
